Protein target, amino acids: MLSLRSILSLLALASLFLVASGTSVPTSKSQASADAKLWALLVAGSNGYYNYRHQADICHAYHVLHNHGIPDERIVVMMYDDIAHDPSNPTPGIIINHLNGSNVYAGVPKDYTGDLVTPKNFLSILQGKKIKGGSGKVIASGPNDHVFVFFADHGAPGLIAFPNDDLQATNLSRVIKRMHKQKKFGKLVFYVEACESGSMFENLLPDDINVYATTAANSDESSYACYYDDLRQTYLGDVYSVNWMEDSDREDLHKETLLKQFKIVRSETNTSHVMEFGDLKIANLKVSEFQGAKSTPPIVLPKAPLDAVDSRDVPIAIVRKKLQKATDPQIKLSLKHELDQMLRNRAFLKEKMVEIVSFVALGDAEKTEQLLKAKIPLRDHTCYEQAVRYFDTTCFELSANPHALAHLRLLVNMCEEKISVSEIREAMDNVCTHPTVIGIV
Kindly state IC50 for each of the entries shown.
One number for each entry, in nM.

Take a look at these entries with their results.
molecule: C[C@H](NC(=O)OCc1ccccc1)C(=O)N[C@@H](C)C(=O)NN(CC(N)=O)C(=O)C=CC(=O)N(C)C(Cc1ccccc1)C(=O)N(C)CCc1ccccc1 (some centres not stated)
observation type: IC50
units of measure: nM
value: 300

molecule: C[C@H](NC(=O)OCc1ccccc1)C(=O)N[C@@H](C)C(=O)NN(CC(N)=O)C(=O)C=CC(=O)N(Cc1ccco1)Cc1ccco1
observation type: IC50
units of measure: nM
value: 15000

molecule: C[C@H](NC(=O)OCc1ccccc1)C(=O)N[C@@H](C)C(=O)NN(CC(N)=O)C(=O)C=Cc1cccnc1
observation type: IC50
units of measure: nM
value: 15000

molecule: C[C@H](NC(=O)OCc1ccccc1)C(=O)N[C@@H](C)C(=O)NN(CC(N)=O)C(=O)C=CC(=O)N(C)Cc1cccc2ccccc12
observation type: IC50
units of measure: nM
value: 5.5

Query: IC50; subject: CCOC(=O)C=CC(=O)N(CC(N)=O)NC(=O)[C@H](C)NC(=O)[C@H](C)NC(=O)OCc1ccccc1
4.5
